The reported measurements were obtained from patent US8765746B2.

# Experimental System: PI3Kalpha (Homo sapiens)
# Construct: His (N); host or cells: SF9 insect cells (baculovirus)
# Sequence (P42336 whole entry): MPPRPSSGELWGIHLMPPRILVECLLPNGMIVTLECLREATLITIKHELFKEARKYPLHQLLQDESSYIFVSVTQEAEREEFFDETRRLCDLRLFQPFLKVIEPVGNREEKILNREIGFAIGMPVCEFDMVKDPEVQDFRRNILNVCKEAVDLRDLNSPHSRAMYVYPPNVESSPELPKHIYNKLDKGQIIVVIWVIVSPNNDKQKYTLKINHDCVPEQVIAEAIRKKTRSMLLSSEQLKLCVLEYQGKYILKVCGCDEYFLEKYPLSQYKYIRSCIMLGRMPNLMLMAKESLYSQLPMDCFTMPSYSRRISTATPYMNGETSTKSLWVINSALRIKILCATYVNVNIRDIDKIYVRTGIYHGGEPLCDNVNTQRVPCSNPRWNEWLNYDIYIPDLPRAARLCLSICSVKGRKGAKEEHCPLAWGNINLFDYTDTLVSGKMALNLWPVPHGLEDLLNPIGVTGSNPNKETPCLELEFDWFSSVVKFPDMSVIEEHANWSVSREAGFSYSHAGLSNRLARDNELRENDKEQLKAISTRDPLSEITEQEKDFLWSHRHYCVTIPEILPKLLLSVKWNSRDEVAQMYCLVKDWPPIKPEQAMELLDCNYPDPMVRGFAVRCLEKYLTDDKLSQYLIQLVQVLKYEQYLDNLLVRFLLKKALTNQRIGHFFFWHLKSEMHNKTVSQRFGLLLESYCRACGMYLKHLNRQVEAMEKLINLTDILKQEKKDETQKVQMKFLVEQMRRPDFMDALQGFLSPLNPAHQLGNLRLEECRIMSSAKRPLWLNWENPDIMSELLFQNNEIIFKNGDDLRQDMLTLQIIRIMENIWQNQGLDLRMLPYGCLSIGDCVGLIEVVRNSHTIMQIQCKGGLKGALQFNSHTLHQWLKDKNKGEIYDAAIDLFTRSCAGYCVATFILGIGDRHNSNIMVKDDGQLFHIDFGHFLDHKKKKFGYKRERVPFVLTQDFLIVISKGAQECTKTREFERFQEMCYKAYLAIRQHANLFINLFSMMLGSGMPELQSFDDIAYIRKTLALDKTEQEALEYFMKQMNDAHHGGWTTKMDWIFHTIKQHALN
# Sequence (P27986 whole entry partner): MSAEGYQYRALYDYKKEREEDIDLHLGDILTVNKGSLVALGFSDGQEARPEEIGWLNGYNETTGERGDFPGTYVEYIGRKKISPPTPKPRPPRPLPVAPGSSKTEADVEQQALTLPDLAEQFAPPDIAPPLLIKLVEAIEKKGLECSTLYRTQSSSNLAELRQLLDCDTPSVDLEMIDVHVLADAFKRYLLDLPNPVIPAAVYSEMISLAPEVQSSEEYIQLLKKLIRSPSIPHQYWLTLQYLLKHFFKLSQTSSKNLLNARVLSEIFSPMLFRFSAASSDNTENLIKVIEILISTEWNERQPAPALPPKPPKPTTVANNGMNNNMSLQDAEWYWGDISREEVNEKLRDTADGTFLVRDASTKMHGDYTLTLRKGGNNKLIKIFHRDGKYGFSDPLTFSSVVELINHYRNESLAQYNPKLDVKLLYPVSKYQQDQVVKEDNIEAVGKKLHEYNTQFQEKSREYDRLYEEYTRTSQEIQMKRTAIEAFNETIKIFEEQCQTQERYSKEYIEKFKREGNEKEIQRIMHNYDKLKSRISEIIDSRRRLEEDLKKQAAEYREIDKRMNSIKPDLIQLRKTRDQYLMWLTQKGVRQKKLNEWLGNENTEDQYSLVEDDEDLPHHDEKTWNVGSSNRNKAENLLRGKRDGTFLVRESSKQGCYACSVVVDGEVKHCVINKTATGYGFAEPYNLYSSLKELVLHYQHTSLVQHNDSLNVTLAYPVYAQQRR
# Experiment Description: Human PI3Kα enzyme assay (HTRF)
# Format: biochemical
# Assay Context: read-out: PI3Kalpha % inh
# From the text: The catalytic subunits of PI3Ks are cloned into either pDEST8(p110 alpha) or pDEST10(p110beta, p110delta, and p110gamma) as N-terminal His tagged fusion proteins using the Gateway system (Invitrogen, catalog#11804-010 for pDEST8 and 11806-015 for pDEST10). The sequences are verified before recombinant protein expression using the Baculovirus Expression System with Gateway® Technology. The accession numbers for the subunits are as follows: […]
Consider the following compounds and their measured inhibition at 1.11 µM readings.
Kindly provide the numeric value in % only, without the unit symbol.

Which inhibition at 1.11 µM value belongs to CN(C)CC#Cc1c(N2CCOCC2)sc2c1C(c1ccc(Cl)cc1)CNC2=O (centres unmarked) ?
58.1

Which inhibition at 1.11 µM value belongs to N#Cc1c(N2CCOCC2)sc2c1C(c1ccc(Cl)cc1)CNC2=O (centres unmarked) ?
46.1

Which inhibition at 1.11 µM value belongs to O=C1N[C@@H](C(=O)O)[C@H](c2ccc(Cl)c(Cl)c2)c2cc(N3CCOCC3)sc21 (relative stereo) ?
16.7

Which inhibition at 1.11 µM value belongs to COC(=O)C1C(=O)c2sc(N3CCOCC3)cc2C1c1ccc(Cl)c(Cl)c1 (centres unmarked) ?
14.4

Which inhibition at 1.11 µM value belongs to CNC(=O)c1[nH]c(=O)c2sc(N3CCOCC3)cc2c1-c1ccc(Cl)cc1 ?
74.5

Which inhibition at 1.11 µM value belongs to CNC(=O)[C@@H]1NC(=O)c2sc(-c3ccnc(C)c3)cc2[C@H]1c1ccc(Cl)cc1 (relative stereo) ?
7.29

Which inhibition at 1.11 µM value belongs to Cc1cc(C2CNC(=O)c3sc(N4CCOCC4)cc32)ccc1Cl (centres unmarked) ?
38.6

Which inhibition at 1.11 µM value belongs to O/N=C1/CCC(c2ccc(Cl)cc2)c2cc(-c3ccncc3)sc21 (centres unmarked) ?
18.8
